- Test system: Sagittaria pygmaea, L.
- Test: Preemergence weed control under flooded paddy conditions, SAGPY (Arrowhead (Pygmaea))
- Type: in vivo
- Condition: 0.0620 kg/ha; preemergence weeds, flooded paddy; herbicidal effect rating 0-9, three to four weeks after treatment
Observed property: SAGPY
One number for each entry.

Cn1c(C(F)(F)F)cc(=O)n(-c2ccc3snc(C(=O)SCc4ccccc4)c3c2)c1=O | 0.0
CC(=O)OCCCSC(SCCCOC(C)=O)c1nsc2ccc(-n3c(=O)cc(C(F)(F)F)n(C)c3=O)cc12 | 2.0
COC(=O)COc1cc2c(cc1-c1nsc3ccc(-n4c(=O)cc(C(F)(F)F)n(C)c4=O)cc13)CCC2 | 4.0
Cn1c(C(F)(F)F)cc(=O)n(-c2ccc3snc(C(=O)NS(=O)(=O)Cc4ccccc4[N+](=O)[O-])c3c2)c1=O | 0.0
Cn1c(C(F)(F)F)cc(=O)n(-c2ccc3snc(C(C#N)=CC4CC4)c3c2)c1=O | 2.0

Please state SAGPY for every molecule in the list that follows.
1. Cc1ccc(OCC(=O)N(C)S(C)(=O)=O)c(-c2nsc3ccc(-n4c(=O)cc(C(F)(F)F)n(C)c4=O)cc23)c1
2. CN(Cc1ccc(Cl)cc1)S(=O)(=O)NC(=O)c1nsc2ccc(-n3c(=O)cc(C(F)(F)F)n(C)c3=O)cc12

1. 3.0
2. 0.0

* * *

- System: Monochoria vaginalis, Presl.
- Test: Preemergence weed control under flooded paddy conditions, MOOVA (Monochoria)
- Type: in vivo
- Condition: 0.2500 kg/ha; preemergence weeds, flooded paddy; herbicidal effect rating 0-9, three to four weeks after treatment
Observed property: MOOVA
Answers are plain numbers.

Cc1ccc(OCC(=O)O)c(-c2noc3cc(F)c(-n4c(=O)cc(C(F)(F)F)n(C)c4=O)cc23)c1 | 9.0

Provide each entry's MOOVA from the list below.
1. COc1ccc(C)cc1-c1nsc2cc(Cl)c(-n3c(=O)cc(C(F)(F)F)n(C)c3=O)cc12
2. CN(C)/N=C/c1nsc2ccc(-n3c(=O)cc(C(F)(F)F)n(C)c3=O)cc12
3. Cn1c(C(F)(F)F)cc(=O)n(-c2ccc3snc(C(=O)c4ccccc4)c3c2)c1=O

1: 9.0; 2: 9.0; 3: 9.0

I have 5 molecules here; please give me MOOVA for each one.
1. COC(=O)COc1cc2c(cc1-c1nsc3ccc(-n4c(=O)cc(C(F)(F)F)n(C)c4=O)cc13)CCC2
2. COC(=O)CN(C(=O)c1nsc2ccc(-n3c(=O)cc(C(F)(F)F)n(C)c3=O)cc12)S(=O)(=O)Cc1ccccc1
3. CC(OS(=O)(=O)C(C)C)c1nsc2ccc(-n3c(=O)cc(C(F)(F)F)n(C)c3=O)cc12 (stereo not drawn)
4. CCC(C#N)c1nsc2ccc(-n3c(=O)cc(C(F)(F)F)n(C)c3=O)cc12 (stereo not drawn)
5. Cn1c(C(F)(F)F)cc(=O)n(-c2ccc3snc(C(=O)NS(=O)(=O)Cc4ccccc4[N+](=O)[O-])c3c2)c1=O

9.0
9.0
9.0
9.0
6.0

* * *

- System: Echinochloa oryzoides (Ard.) Fritsch.
- Test: Preemergence weed control under flooded paddy conditions, ECHORC (Watergrass (Calif.))
- Format: in vivo
- Condition: Rate 0.2500 kg/ha; preemergence, flooded paddy; rated three to four weeks after treatment
Observed property: ECHORC herbicidal effect rating
Answers are plain numbers.

C=C(C)C1CC=C(COCc2nsc3ccc(-n4c(=O)ccn(C)c4=O)cc23)CC1 (stereo not drawn) | 9.0

I need ECHORC herbicidal effect rating for every entry listed below, if you could help.
1. Cc1nsc2ccc(-n3c(=O)cc(C(F)(F)F)n(Cc4ccccc4)c3=O)cc12
2. Cn1c(C(F)(F)F)cc(=O)n(-c2ccc3snc(C(C)(C)C#N)c3c2)c1=O
3. Cn1c(C(F)(F)F)cc(=O)n(-c2ccc3snc(/C=N/O)c3c2)c1=O
4. Cn1c(C(F)(F)F)cc(=O)n(-c2ccc3snc(C=C(F)Br)c3c2)c1=O
5. Cn1c(C(F)(F)F)cc(=O)n(-c2ccc3snc(COCC(=O)NS(C)(=O)=O)c3c2)c1=O
6. Cn1c(C(F)(F)F)cc(=O)n(-c2ccc3snc(CO)c3c2)c1=O
7. COC(=O)COCc1nsc2ccc(-n3c(=O)cc(C(F)(F)F)n(C)c3=O)cc12

1: 4.0; 2: 9.0; 3: 8.0; 4: 8.0; 5: 0.0; 6: 7.0; 7: 0.0
